Provenance of the data: ChEMBL document CHEMBL4342515

- method.notes: Drug uptake in human U87MG cells at 50 uM measured upto 4 hrs by ICP-MS analysis
- Format: ADME, cell-based
- condition.parameters: u-87mg atcc
measured.endpoint: Drug uptake

COC(=O)C(Cc1cn(C(=O)OC(C)(C)C)c2ccc(B3OC(C)(C)C(C)(C)O3)cc12)N(C(=O)OC(C)(C)C)C(=O)OC(C)(C)C (stereo not given) :: Active
COC(=O)C(Cc1cn(C(=O)OC(C)(C)C)c2ccc(B3OC(C)(C)C(C)(C)O3)cc12)N(C(C)=O)C(=O)OC(C)(C)C (stereo not given) :: Active
COC(=O)C(Cc1c[nH]c2ccc(B3OC(C)(C)C(C)(C)O3)cc12)NC(C)=O (stereo not given) :: Not Active
COC(=O)C(Cc1cn(C(=O)OC(C)(C)C)c2cc(B3OC(C)(C)C(C)(C)O3)ccc12)N(C(=O)OC(C)(C)C)C(=O)OC(C)(C)C (stereo not given) :: 300 ppm

Name the recorded Drug uptake for COC(=O)C(N)Cc1c[nH]c2ccc(B3OC(C)(C)C(C)(C)O3)cc12 (stereo not given) .
Not Active
